Below: a set of entries, each annotated with reported Kd.
target: T1, recombinant human TfR (r human TfR: Sino Biological Inc.) (human, UniProt P02786 89-760); test: BLI (Octet RED96), His-tagged TfR ECD loaded on Ni-NTA sensor, antibody as analyte
T1 construct: Bought product; also called r human TfR-ECD (Histag); hTfR; not shown: histidine tag attached to the N-terminus
T1 sequence (P02786 89-760): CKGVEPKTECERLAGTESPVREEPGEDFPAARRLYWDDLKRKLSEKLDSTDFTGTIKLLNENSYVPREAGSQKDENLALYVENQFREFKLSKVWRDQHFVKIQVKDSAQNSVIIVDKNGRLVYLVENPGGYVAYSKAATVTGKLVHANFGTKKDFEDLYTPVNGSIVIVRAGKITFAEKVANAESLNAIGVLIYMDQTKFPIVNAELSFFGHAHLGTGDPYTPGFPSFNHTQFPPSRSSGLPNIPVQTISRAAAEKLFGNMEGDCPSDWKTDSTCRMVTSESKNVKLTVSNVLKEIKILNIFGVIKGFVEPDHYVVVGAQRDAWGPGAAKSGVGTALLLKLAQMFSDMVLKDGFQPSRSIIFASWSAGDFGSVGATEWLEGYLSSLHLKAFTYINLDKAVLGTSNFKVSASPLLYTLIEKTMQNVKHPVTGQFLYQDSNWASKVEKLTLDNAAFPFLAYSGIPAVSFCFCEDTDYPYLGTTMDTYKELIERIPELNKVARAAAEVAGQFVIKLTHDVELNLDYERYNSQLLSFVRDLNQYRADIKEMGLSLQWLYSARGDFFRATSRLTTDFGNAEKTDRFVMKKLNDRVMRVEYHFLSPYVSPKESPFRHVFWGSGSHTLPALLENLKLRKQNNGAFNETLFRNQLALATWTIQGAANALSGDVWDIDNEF

binder	rel	Kd [nM]
anti-hTfR antibody No. 11 (antibody, V domains shown, Mouse hybridoma antibody purified on Protein G; also called mouse anti-hTfR antibody No. 11; product of Clone 11 line) VH: EVQLQESGAELVRPGSSVKISCKASGYAFSIYWINWLKQRPGQGLEWIGQIYPGNGDTNYNGKFKGKATLTADKSSNTVYMRLSSLTSEDSAVYFCGRWGDDYAMDFWGQGTSVTVSS VL: DIVLTQSPATLSVTPGDRVSLSCRASQSIRNYLHWYQQKSHESPRLLIKYASQSISGIPSRFSGSGSGTDFTLSINSVETEDFGMYFCQQTNSWPYTFGGGTKLEIK	=	0.0837
anti-hTfR antibody No. 14 (antibody, V domains shown, Mouse hybridoma antibody purified on Protein G; also called mouse anti-hTfR antibody No. 14; product of Clone 14 line) VH: EVQLQESGPELLKPGASVKMSCKASGYAFTGYVIHWVKQKPGQGLEWIGFLNPHKDDSEYNEKFRGKATLTSDKSSSTAYMDLSSLTSEDSAVYYCARGYYYYSMDYWGQGTSVTVSS VL: DIVLTQTPVIMSAYPGEKVTLTCSASSNINSIHWYQQKPGTSPKRWIYDTSNLASGVPARFSGSGSGTSYSLTISSMEAEDAASYYCHQRSGYPFTFGSGTKLEIK	<	0.001
anti-hTfR antibody No. 9 (antibody, V domains shown, Mouse hybridoma antibody purified on Protein G; also called mouse anti-hTfR antibody No. 9; product of Clone 9 line) VH: EVQLQESGPELKKPGETVKISCKASGYTFTNYGVSWVKQAPGKDLKWMGWIYTFTGEATYIDDFRGRFAFSLETSANTAYLQINNLKNEDTATYFCSRRNGAWFEDWGQGTLVTVSA VL: DIVLTQSPALMSASPGETVTMTCSASSSVSLMFWYQQKPRSSPKPWIYFTSYRASGVPIRFSGSGSGTSFSLTISNLEAEDAATYYCQQWTSDPPTFGSGTKLEIE	=	0.121
anti-hTfR antibody No. 12 (antibody, V domains shown, Mouse hybridoma antibody purified on Protein G; also called mouse anti-hTfR antibody No. 12; product of Clone 12 line) VH: EVQLQESGAELARPGTSVKVSCKAAGYVFINYLIEWVKQRPGQGLEWIGVIHSGSGGTNYNDNFKDKATLTRDVSSSTAYMQLSSLTSDDSAVYFCARRNFGNYYFDYWGQGTTLTVSS VL: DIVLTQSHKFMSTVIGDRVSITCKASHDVKTAVAWYQQTPGQSPKLLTYWSSTRHTGVPDRFTGSGSGTDYTLTISSVQAEDLALYYCQQHFSTPLTFGAGTKLELK	=	0.432
anti-hTfR antibody No. 4 (antibody, V domains shown, Mouse hybridoma antibody purified on Protein G; also called mouse anti-hTfR antibody No. 4; product of Clone 4 line) VH: EVQLQESGAELVRPGTSVRVFCKASGYAFTNYLIEWVKQRPGQGLEWIGLINPGSGGIIYNEKFTDRATLTADKSSSTAYMQLSSLTSDDSAVYFCARSNYYGTTYWHFDVWGAGTTVTVSS VL: DIVLTQTPAIMSASPGEKVTMTCSASSNVNYMHWYQQKSSTSPKLWIYDTSKLASGVPGRFSGSGSGNSYSLTISSMEAEDVATYYCFQGNGNPYTFGGGTKLEIK	=	0.12
anti-hTfR antibody No. 3 (antibody, V domains shown, Mouse hybridoma antibody purified on Protein G; also called mouse anti-hTfR antibody No. 3; product of Clone 3 line) VH: EVQLQESGAELVRPGTSVKISCKASGYTFMNYWLGWVKQRPGHGLEWIGDIYPGGDYPTYSEKFKVKAILTADTSSSSVYLHLSSLTSEDSAVYFCARSGNYDEVAYWGQGTLVTVST VL: DIVMTQTTLSLPVSLGDQASISCRSSQSLVHSNGNTYLHWYLQKPGQSPKLLIYKVSNRFSGVPDRFSGSGSGTDFTLKISRVEAEDLGVFFCSQSTHVPWTFGGGTKLEIKR	<	0.001
